Source of measurements: patent US10183915B2

- Protocol description: Stability of compounds in SD rat plasma
- Type: in vitro ADME
- Run conditions: SD, rat, plasma, pH 7.4, SD rat plasma, 2 μM, 37° C., 60 min; read-out: Recovery (% remaining)
Measured quantity: recovery at 60 min, 2 μM

Look up recovery at 60 min, 2 μM for this compound: O=C(O)CSc1nnc(Br)n1-c1ccc(C2CC2)c2ccccc12 (single isomer, unassigned) [(−)-Lesinurad]
97.9%

---

- Protocol description: Stability of compounds in human plasma
- Assay type: in vitro ADME
- Run conditions: human, plasma, pH 7.4, human plasma, 2 μM, 37° C., 30 min; read-out: Recovery (% remaining)
Measured quantity: recovery at 30 min, 2 μM (%)
Give the quantity in %, number only.

Look up recovery at 30 min, 2 μM for this molecule: O=C(O)CSc1nnc(Br)n1-c1ccc(C2CC2)c2ccccc12 (single isomer, unassigned) [(+)-Lesinurad]
99.5
